Tested on: buckwheat, wild (wild buckwheat, Polygonum convolvulus)
Assay: Test D controlled growth environment herbicide test, pre- and postemergence
Type: in vivo
Details: Preemergence, 125 g ai/ha; scale 0 to 100 (0 no effect, 100 complete control)
I'd appreciate it if you could supply Plant response rating, Buckwheat, Wild values for the items below.
One number for each entry.

CCc1sc2c(C)cc(C)cc2c1-c1c(O)c(C)nn(C)c1=O [Compound 57]
10
Cc1nn(C)c(=O)c(-c2cccc3ccccc23)c1O [Compound 11]
15

State the recorded Plant response rating, Buckwheat, Wild for every item in the following list.
1. Cc1cc(C)c2sc(C)c(-c3c(O)c(C)nn(C)c3=O)c2c1 [Compound 2]
2. Cc1cc2ccccc2c(-c2c(O)c(C)nn(C)c2=O)c1C [Compound 34]
3. Cc1ccc2sc(Br)c(-c3c(O)c(C)nn(C)c3=O)c2c1 [Compound 79]
4. Cc1nn(C)c(=O)c(-c2c(C)sc3c(C)cc(Cl)cc23)c1O [Compound 35]

[100, 0, 25, 20]

Plant response rating, Buckwheat, Wild of Cc1ccc2ccccc2c1-c1c(OC(=O)OC(C)C)c(C)nn(C)c1=O [Compound 72] on buckwheat, wild (wild buckwheat, Polygonum convolvulus)?
15

* * *

System: Italian ryegrass (Lolium multiflorum)
Assay: Test E greenhouse herbicide test, pre- and postemergence
Format: in vivo
Settings: Postemergence, 31 g ai/ha; visual, scale 0 no effect to 100 complete control
Please note: t applies when Plant response rating, Ryegrass, Italian is 40 or greater, and f applies otherwise.

Cc1nn(C)c(=O)c(-c2cccc3ccc(Br)cc23)c1O [Compound 126]
t
Cc1nn(C)c(=O)c(-c2ccc(Br)c3ccccc23)c1O [Compound 75]
t
CCc1sc2ccc(C)cc2c1-c1c(O)c(C)nn(C)c1=O [Compound 47]
f

Query compound follows.
Please indicate if the recorded Plant response rating, Ryegrass, Italian for Cc1cc(C)c2sc(C)c(-c3c(O)c(C)nn(C)c3=O)c2c1 [Compound 2] meets or exceeds 40.
f

* * *

Tested on: morningglory (Ipomoea coccinea)
Test: Test C greenhouse herbicide test, pre- and postemergence
Assay type: in vivo
Details: Postemergence, 31 g ai/ha; 0 to 100 scale (0 no effect, 100 complete control)
Exercise: state measured Morningglory plant response rating for each of the compounds provided.

# annotated cases, reported Morningglory plant response rating shown
Cc1ccc2sc(C)c(-c3c(OC(=O)OC(C)C)c(C)nn(C)c3=O)c2c1
90
CCc1oc2ccc(C)cc2c1-c1c(O)c(C)nn(C)c1=O
55
Cc1nn(C)c(=O)c(-c2c(C)sc3ccc(Br)cc23)c1O
100
CCC(=O)Oc1c(C)nn(C)c(=O)c1-c1c(C)ccc2ccccc12
20

Consider now this further compound.
Give recorded Morningglory plant response rating with morningglory (Ipomoea coccinea) for the following compound: Cc1nn(C)c(=O)c(-c2c(C)sc3c(C)cc(Cl)cc23)c1O
100

* * *

Test system: wheat (winter wheat, Triticum aestivum)
Experiment: Test C greenhouse herbicide test, pre- and postemergence
Format: in vivo
Details: Postemergence, 31 g ai/ha; scale 0 to 100 (0 no effect, 100 complete control)
Assign Plant response rating, Wheat to each entry below.
Give bare numbers.

COC(=O)Oc1c(OC)nn(C)c(=O)c1-c1c(C)ccc2ccccc12 [Compound 136]
35
Cc1nn(C)c(=O)c(-c2ccc(Cl)c3ccccc23)c1O [Compound 139]
45
CC(=O)Oc1c(C)nn(C)c(=O)c1-c1c(C)sc2ccc(C(F)(F)F)cc12 [Compound 132]
0
Cc1ccc2ccccc2c1-c1c(O)c(C(F)(F)F)nn(C)c1=O [Compound 102]
0
COC(=O)Oc1c(C)nn(C)c(=O)c1-c1ccc(F)c2ccccc12 [Compound 130]
0
CCC(=O)Oc1c(C)nn(C)c(=O)c1-c1ccc(F)c2ccccc12 [Compound 113]
5

Next compound, please.
What value of Plant response rating, Wheat has been recorded for this entry: CCC(=O)Oc1c(C)nn(C)c(=O)c1-c1ccc(Br)c2ccccc12 [Compound 134]
30

* * *

Tested on: canarygrass (Phalaris minor)
Test: Test D controlled growth environment herbicide test, pre- and postemergence
Type: in vivo
Details: Postemergence, 250 g ai/ha; scale 0 to 100 (0 no effect, 100 complete control)
Each record is given True if its reported Plant response rating, Canarygrass is strictly below 60. Records at or above 60 are given False.

A selection of reference data follows.
Cc1nn(C)c(=O)c(-c2cccc3ccccc23)c1O
True
CCc1sc2c(C)cc(C)cc2c1-c1c(O)c(C)nn(C)c1=O
True
Cc1nn(C)c(=O)c(-c2c(C)sc3ccc(Br)cc23)c1O
False
Cc1cc2ccccc2c(-c2c(O)c(C)nn(C)c2=O)c1C
False
Cc1nn(C)c(=O)c(-c2c(C)sc3c(C)cc(Cl)cc23)c1O
False
COC(=O)Oc1c(C)nn(C)c(=O)c1-c1c(C)sc2ccc(C)cc12
False

Strictly below 60: is that where Plant response rating, Canarygrass of Cc1nn(C)c(=O)c(-c2ccc(F)c3ccccc23)c1O sits?
False

* * *

Tested on: pigweed (Amaranthus retroflexus)
Assay: Test D controlled growth environment herbicide test, pre- and postemergence
Format: in vivo
Settings: Preemergence, 125 g ai/ha; scale 0 to 100 (0 no effect, 100 complete control)
I'd appreciate it if you could supply Plant response rating, Pigweed values for the items below.
One number for each entry.

Cc1ccc2sc(Br)c(-c3c(O)c(C)nn(C)c3=O)c2c1
100

Field: Plant response rating, Pigweed. Fill in for each record below.
1. Cc1ccc2sc(C)c(-c3c(OC(=O)OC(C)C)c(C)nn(C)c3=O)c2c1
2. Cn1nc(Br)c(O)c(-c2cccc3ccccc23)c1=O
3. Cc1nn(C)c(=O)c(-c2c(C)sc3c(C)cc(Cl)cc23)c1O
4. Cc1ccc2ccccc2c1-c1c(OC(=O)OC(C)C)c(C)nn(C)c1=O

1. 100
2. 100
3. 100
4. 95

* * *

Kindly state Plant response rating, Galium for each of the entries shown.
Tested on: galium (catchweed bedstraw, Galium aparine)
Experiment: Test C greenhouse herbicide test, pre- and postemergence
Assay type: in vivo
Settings: Preemergence, 125 g ai/ha; scale 0 to 100, 0 is no effect, 100 is complete control
Numbers only.

Please review the following examples before continuing.
CC(=O)Oc1c(Cl)nn(C)c(=O)c1-c1c(C)sc2ccc(C(F)(F)F)cc12 [Compound 152]
95
CCC(=O)Oc1c(OC)nn(C)c(=O)c1-c1c(C)sc2ccc(Cl)cc12 [Compound 131]
95
Cc1sc2ccccc2c1-c1c(O)c(Cl)nn(C)c1=O [Compound 89]
98
CCc1ccc2ccccc2c1-c1c(O)c(C)nn(C)c1=O [Compound 32]
100

Shifting focus to the compound that follows.
What does the data say about its Plant response rating, Galium? Entry: Cc1ccc2ccccc2c1-c1c(OC(=O)OC(C)C)c(C)nn(C)c1=O [Compound 72]
95

* * *

Tested on: field violet (Viola arvensis)
Test: Test D controlled growth environment herbicide test, pre- and postemergence
Format: in vivo
Details: Preemergence, 125 g ai/ha; scale 0 to 100 (0 no effect, 100 complete control)
Give Plant response rating, Field Violet for every item shown.
Answers are plain numbers.

Observe how each entry below is paired with its result.
Cc1nn(C)c(=O)c(-c2ccc(F)c3ccccc23)c1O
100
Cc1nn(C)c(=O)c(-c2ccc(Br)c3ccccc23)c1O
100
Cc1nn(C)c(=O)c(-c2cccc3ccc(Br)cc23)c1O
100
CCCC(=O)Oc1c(C)nn(C)c(=O)c1-c1c(C)sc2ccc(C)cc12
100

Let us move to another entry and its Plant response rating, Field Violet.
For field violet (Viola arvensis), provide Plant response rating, Field Violet of Cc1nn(C)c(=O)c(-c2c(C)sc3ccc(Br)cc23)c1O please.
80

* * *

System: wheat, winter (winter wheat, Triticum aestivum)
Test: Test D controlled growth environment herbicide test, pre- and postemergence
Assay type: in vivo
Conditions: postemergence, 62 g ai/ha; scale 0 to 100, 0 no effect, 100 complete control
Source text: […]
Please provide measured Plant response rating, Wheat, Winter for the entries that follow.
Give bare numbers.

See these solved cases before continuing.
CC(=O)Oc1c(C)nn(C)c(=O)c1-c1c(C)sc2ccc(Cl)cc12
15
Cc1nn(C)c(=O)c(-c2cccc3ccc(Br)cc23)c1O
0
Cn1nc(Br)c(O)c(-c2cccc3ccccc23)c1=O
10
Cc1cc2ccccc2c(-c2c(O)c(C)nn(C)c2=O)c1C
25

# next compound below
Which Plant response rating, Wheat, Winter value is on record for Cc1ccc2ccccc2c1-c1c(OC(=O)OC(C)C)c(C)nn(C)c1=O ?
35

* * *

Tested on: pigweed, palmer (palmer pigweed, Amaranthus palmeri)
Experiment: Test E greenhouse herbicide test, pre- and postemergence
Format: in vivo
Settings: Postemergence, 31 g ai/ha; visual, scale 0 no effect to 100 complete control
Measure: Plant response rating, Pigweed, Palmer
Numbers only.

Cc1nn(C)c(=O)c(-c2cccc3ccc(Br)cc23)c1O
40
Cc1nn(C)c(=O)c(-c2ccc(Br)c3ccccc23)c1O
70
Cn1nc(Br)c(O)c(-c2cccc3ccccc23)c1=O
40
CCc1sc2c(C)cc(C)cc2c1-c1c(O)c(C)nn(C)c1=O
10
CCc1sc2ccc(C)cc2c1-c1c(O)c(C)nn(C)c1=O
35

Which Plant response rating, Pigweed, Palmer reading was recorded for the molecule Cc1nn(C)c(=O)c(-c2ccc(F)c3ccccc23)c1O ?
50
